The following compounds are shown together with reported Plant response rating, Bermudagrass values.
Test system: bermudagrass (Cynodon dactylon)
Assay: Test B pre-/postemergence plant response
Format: in vivo
Settings: Preemergence, 62 g ai/ha; scale 0 to 100

Examples with answers:
# molecule, Plant response rating, Bermudagrass
measured = [
    ("Cc1cc(-c2ccc(Cl)cc2)nn1-c1c(OC(=O)c2ccccc2Cl)cnn(C)c1=O", 100),
    ("CCc1cc(-c2ccc(C(F)(F)F)cc2)nn1-c1c(OC(=O)OC(C)C)cnn(C)c1=O", 100),
    ("Cc1cc(-c2ccc(Cl)cc2)nn1-c1c(OC(=O)c2cccs2)cnn(C)c1=O", 85),
    ("CCc1cc(-c2ccc(Cl)cc2)nn1-c1c(O)cnn(C)c1=O", 100),
    ("CCOC(=O)Oc1cnn(C)c(=O)c1-n1nc(-c2ccc(Cl)cc2)cc1C", 0),
]

Next compound, please.
Looking up `Cc1cc(-c2ccc(Cl)cc2)nn1-c1c(OS(=O)(=O)c2cccc3ccccc23)cnn(C)c1=O` , I found its Plant response rating, Bermudagrass recorded as 100

---

Test system: winter wheat (Triticum aestivum)
Assay: Test C pre-/postemergence plant response
Format: in vivo
Conditions: Preemergence, 62 g ai/ha; scale 0 to 100, 0 no effect, 100 complete control
The compounds listed here are annotated with their Plant response rating, Wheat, Winter.
Answer field: number only, no words.

# molecule, studySystem, outcomeMeasure, readoutValue
records = [
    ("Cc1cc(-c2ccc(Cl)cc2)nn1-c1c(OC(=O)CC(C)C)cnn(C)c1=O", "winter wheat (Triticum aestivum)", "Plant response rating, Wheat, Winter", 90),
    ("Cc1cc(-c2ccc(Cl)cc2)nn1-c1c(OC(=O)c2cccc(Cl)c2)cnn(C)c1=O", "winter wheat (Triticum aestivum)", "Plant response rating, Wheat, Winter", 65),
    ("CCCc1cc(-c2ccc(Cl)cc2)nn1-c1c(O)cnn(C)c1=O", "winter wheat (Triticum aestivum)", "Plant response rating, Wheat, Winter", 70),
]

Here is the next item to consider.
compound `Cc1cc(-c2ccc(Cl)cc2)nn1-c1c(OC(=O)c2cccs2)cnn(C)c1=O` , Plant response rating, Wheat, Winter observed: 65

---

Test system: winter barley (Hordeum vulgare)
Test: Test B postemergence plant response
Type: in vivo
Conditions: 8 g ai/ha, postemergence; 0-100 scale
outcomeMeasure: Barley plant response rating
Please give the numeric answer without any surrounding text.

Summary for this compound, `CCc1c(C)c(-c2ccc(Br)cc2)nn1-c1c(O)cnn(C)c1=O` : Barley plant response rating is 0

---

System: green foxtail (Setaria viridis)
Experiment: Test B pre-/postemergence plant response
Format: in vivo
Conditions: 8 g ai/ha, postemergence; 0-100 scale
outcomeMeasure: Foxtail, Green plant response rating

# molecule, readoutValue
records = [
    ("CCCc1cc(-c2ccc(Cl)cc2)nn1-c1c(O)cnn(C)c1=O [Compound 43]", 60),
    ("Cc1cc(-c2ccc(Cl)cc2)nn1-c1c(OS(=O)(=O)c2ccccc2)cnn(C)c1=O [Compound 35]", 0),
    ("Cc1nn(C)c(=O)c(-c2nc(-c3ccc(Cl)cc3)sc2C)c1O [Compound 79]", 75),
    ("CCCc1cc(-c2ccc(C(F)(F)F)cc2)nn1-c1c(O)cnn(C)c1=O [Compound 72]", 98),
    ("Cc1cc(-c2ccc(Cl)cc2)nn1-c1c(OC(=O)c2cccc(Cl)c2)cnn(C)c1=O [Compound 32]", 60),
]

Tested on green foxtail (Setaria viridis): CCCc1cc(-c2ccc(Cl)cc2)nn1-c1c(O)cnn(C)c1=O [Compound 76] . Observed Foxtail, Green plant response rating: 65

Considering COc1nn(C)c(=O)c(-n2nc(-c3ccc(Br)cc3)cc2C)c1O [Compound 82] , its Foxtail, Green plant response rating with green foxtail (Setaria viridis) was recorded as 85
